particulars: 298.15 K; 101.33 kPa; Liquid
Numbers after ± are expanded uncertainties.
quantityName: mass density
Returns: string containing the number followed by the unit.

CC(C)OC(C)C | 718.5 ± 1 kg/m3
CN(C)C=O [dimethylformamide] | 943.9 ± 1.4 kg/m3
COc1ccccc1 | 989.3 ± 1.5 kg/m3
CCCCCCCCCC | 726.4 ± 1 kg/m3
CCC(C)=O | 799.8 ± 1.2 kg/m3

Now consider the entry below.
Query block: What value of mass density has been recorded for this entry: `CCCCCCCC`
Result block: 698.6 ± 1 kg/m3

* * *

testProtocol: refractive index (Na D-line) (dimensionless)
particulars: 298.15 K; 101.33 kPa; Liquid; Standard Abbe refractometry
quantityName: refractive index
Numbers only.

CCC(C)=O [butanone] | 1.3769
CN(C)C=O [dimethylformamide] | 1.4282
CC(C)OC(C)C [diisopropyl ether] | 1.3654
CCCCCCCCCC [decane] | 1.4097

Now consider the entry below.
Query block: What value of refractive index has been recorded for this entry: COc1ccccc1 [anisole]
Result block: 1.5142
